inhibition at 0.5 µM values by entry
experimentalTarget: CDK-2/cyclin A (Homo sapiens, UniProt P24941)
assayName: CDK inhibition assay, CDK-2/cyclin A against Histone HI, 33P-ATP
Assay type: biochemical
reportedConditions: at 500 nM; read-out: inhibition against CDK2

Field: example entries. Status: answers known.
O=Cc1ccc(-c2cnc3[nH]cc(-c4ccnc(NC5CCCCCC5)n4)c3c2)cc1 [1A53]    > 70%
c1ccc(CCNc2nccc(-c3c[nH]c4ncc(-c5cccnc5)cc34)n2)cc1 [1B15]    > 70%
c1cc(-c2c[nH]c3ncc(-c4ccoc4)cc23)nc(NC2CCCC2)n1 [1A36]    > 50%
c1cc(-c2c[nH]c3ncc(-c4ccoc4)cc23)nc(NC2CC2)n1 [1A16]    > 70%
O=Cc1ccc(-c2cnc3[nH]cc(-c4ccnc(NC5CC5)n4)c3c2)cc1 [1A13]    > 70%

What does the record list as inhibition at 0.5 µM for COc1ccc(-c2cnc3[nH]cc(-c4ccnc(NC5CCCC5)n4)c3c2)cc1 [1A31] ?
> 50%

What does the record list as inhibition at 0.5 µM for Cc1ccc(-c2cnc3[nH]cc(-c4ccnc(NC5CCCC5)n4)c3c2)cc1 [1A26] ?
> 50%

What does the record list as inhibition at 0.5 µM for Clc1ccc(-c2cnc3[nH]cc(-c4ccnc(NCCc5ccccc5)n4)c3c2)cc1 [1B12] ?
> 70%

What does the record list as inhibition at 0.5 µM for Nc1nccc(-c2c[nH]c3ncc(-c4cccc5ccccc45)cc23)n1 [1C14] ?
> 70%

###

experimentalTarget: CDK-2/cyclin A (Homo sapiens)
assayName: CDK inhibition assay, CDK-2/cyclin A against Histone HI, 33P-ATP
Format: biochemical
reportedConditions: at 500 nM; read-out: inhibition against CDK2
measurementKind: inhibition at 0.5 µM

Cc1cccc(-c2cnc3[nH]cc(-c4ccnc(N)n4)c3c2)c1    > 70%
c1ccc2c(-c3cnc4[nH]cc(-c5ccnc(NC6CCCC6)n5)c4c3)nccc2c1    > 50%
c1cncc(-c2cnc3[nH]cc(-c4ccnc(NC5CC5)n4)c3c2)c1    > 50%
c1ccc2[nH]c(-c3cnc4[nH]cc(-c5ccnc(NC6CC6)n5)c4c3)cc2c1    > 70%

We next turn to a different compound, shown below.
What does the record list as inhibition at 0.5 µM for c1ccc(CCNc2nccc(-c3c[nH]c4ncc(-c5cccc6ccccc56)cc34)n2)cc1 ?
> 50%

###

experimentalTarget: CDK-9/Cyclin T1 (Homo sapiens)
Sequence (P50750 whole entry): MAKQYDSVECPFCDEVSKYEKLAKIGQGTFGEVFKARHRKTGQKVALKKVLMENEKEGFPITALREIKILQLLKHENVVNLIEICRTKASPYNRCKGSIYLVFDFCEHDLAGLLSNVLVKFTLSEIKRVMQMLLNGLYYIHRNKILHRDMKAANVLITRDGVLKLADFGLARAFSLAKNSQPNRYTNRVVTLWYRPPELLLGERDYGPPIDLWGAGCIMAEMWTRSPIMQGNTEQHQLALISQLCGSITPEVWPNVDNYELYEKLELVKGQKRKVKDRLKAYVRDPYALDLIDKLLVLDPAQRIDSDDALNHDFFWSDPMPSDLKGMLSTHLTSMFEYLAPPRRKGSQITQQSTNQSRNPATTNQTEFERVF
Sequence (O60563 whole entry partner): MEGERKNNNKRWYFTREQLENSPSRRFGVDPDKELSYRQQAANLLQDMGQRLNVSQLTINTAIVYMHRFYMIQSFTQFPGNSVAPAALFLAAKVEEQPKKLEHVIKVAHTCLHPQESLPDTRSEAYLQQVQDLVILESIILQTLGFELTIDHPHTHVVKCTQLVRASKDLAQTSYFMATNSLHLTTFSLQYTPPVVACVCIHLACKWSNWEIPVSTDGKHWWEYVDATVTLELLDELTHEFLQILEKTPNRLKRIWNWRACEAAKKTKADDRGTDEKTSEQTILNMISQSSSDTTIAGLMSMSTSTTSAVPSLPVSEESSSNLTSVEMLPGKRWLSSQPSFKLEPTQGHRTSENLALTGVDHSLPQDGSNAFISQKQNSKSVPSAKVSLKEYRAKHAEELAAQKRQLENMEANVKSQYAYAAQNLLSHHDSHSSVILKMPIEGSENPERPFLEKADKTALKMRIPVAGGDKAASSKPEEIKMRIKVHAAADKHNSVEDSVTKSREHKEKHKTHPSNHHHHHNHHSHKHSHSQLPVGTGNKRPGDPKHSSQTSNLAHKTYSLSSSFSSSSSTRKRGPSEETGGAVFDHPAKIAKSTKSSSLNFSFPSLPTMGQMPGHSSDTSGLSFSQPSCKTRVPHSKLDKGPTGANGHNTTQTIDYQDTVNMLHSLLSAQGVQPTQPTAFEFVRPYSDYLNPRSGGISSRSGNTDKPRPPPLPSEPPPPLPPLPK
assayName: CDK inhibition assay, CDK-9/Cyclin T1 against substrate peptide, 33P-ATP
Assay type: biochemical
reportedConditions: at 500 nM; Table-7; read-out: In vitro CDK9 % of inhibition
measurementKind: inhibition at 0.5 µM

CSc1ccccc1-c1cnc2[nH]cc(-c3ccnc(N)n3)c2c1    > 70%
c1ccc2c(-c3cnc4[nH]cc(-c5ccnc(NC6CCCCCC6)n5)c4c3)nccc2c1    > 70%
CCc1ccccc1-c1cnc2[nH]cc(-c3ccnc(N)n3)c2c1    > 70%

Form: Entry = Clc1ccc(-c2cnc3[nH]cc(-c4ccnc(NC5CCCCCC5)n4)c3c2)cc1 | System = CDK-9/Cyclin T1 (Homo sapiens) | inhibition at 0.5 µM = ____
> 70%

Form: Entry = FC(F)(F)c1ccc(-c2cnc3[nH]cc(-c4ccnc(NCCc5ccccc5)n4)c3c2)cc1 | System = CDK-9/Cyclin T1 (Homo sapiens) | inhibition at 0.5 µM = ____
< 50%

Form: Entry = Cc1cccc(-c2cnc3[nH]cc(-c4ccnc(NCCc5ccccc5)n4)c3c2)c1 | System = CDK-9/Cyclin T1 (Homo sapiens) | inhibition at 0.5 µM = ____
> 70%

Form: Entry = c1ccc(CCNc2nccc(-c3c[nH]c4ncc(-c5cc6ccccc6s5)cc34)n2)cc1 | System = CDK-9/Cyclin T1 (Homo sapiens) | inhibition at 0.5 µM = ____
> 50%

Form: Entry = COc1ccc2[nH]c(-c3cnc4[nH]cc(-c5ccnc(NCCc6ccccc6)n5)c4c3)cc2c1 | System = CDK-9/Cyclin T1 (Homo sapiens) | inhibition at 0.5 µM = ____
> 50%

Form: Entry = c1ccc(CCNc2nccc(-c3c[nH]c4ncc(-c5cccnc5)cc34)n2)cc1 | System = CDK-9/Cyclin T1 (Homo sapiens) | inhibition at 0.5 µM = ____
> 70%

###

experimentalTarget: CDK-9/Cyclin T1 (Homo sapiens)
assayName: CDK inhibition assay, CDK-9/Cyclin T1 against substrate peptide, 33P-ATP
Format: biochemical
reportedConditions: at 500 nM; read-out: inhibition against CDK9
measurementKind: inhibition at 0.5 µM

Field: example entries. Status: answers known.
Clc1ccc(-c2cnc3[nH]cc(-c4ccnc(NCCc5ccccc5)n4)c3c2)cc1    > 70%
Cc1ccc(-c2cnc3[nH]cc(-c4ccnc(NC5CC5)n4)c3c2)cc1    > 70%
Cc1cccc(-c2cnc3[nH]cc(-c4ccnc(NC5CCCCCC5)n4)c3c2)c1    > 50%

We next turn to a different compound, shown below.
What does the record list as inhibition at 0.5 µM for c1ccc2sc(-c3cnc4[nH]cc(-c5ccnc(NC6CC6)n5)c4c3)cc2c1 ?
> 70%

###

inhibition at 10 µM values by entry
Test system: SHSY-5Y
assayName: MTT assay on cancer cell line SHSY-5Y
Type: cell-based, human
reportedConditions: Homo sapiens, SH-SY5Y, SHSY-5Y, Table 8, read-out: In vitro cell inhibition, % of inhibition, SHSY-5Y

COc1ccc(-c2cnc3[nH]cc(-c4ccnc(NCCc5ccccc5)n4)c3c2)cc1    > 50%
c1ccc(CCNc2nccc(-c3c[nH]c4ncc(-c5cccnc5)cc34)n2)cc1    > 70%
COc1ccc(-c2cnc3[nH]cc(-c4ccnc(NC5CCCC5)n4)c3c2)cc1    > 70%
Fc1cccc(-c2cnc3[nH]cc(-c4ccnc(NC5CC5)n4)c3c2)c1    > 70%

We next turn to a different compound, shown below.
What does the record list as inhibition at 10 µM for c1cc(-c2c[nH]c3ncc(-c4ccoc4)cc23)nc(NC2CC2)n1 ?
> 50%

###

experimentalTarget: CDK-2/cyclin A (Homo sapiens)
assayName: CDK inhibition assay, CDK-2/cyclin A against Histone HI, 33P-ATP
Type: biochemical
reportedConditions: at 500 nM; read-out: inhibition against CDK2
Protocol: Compounds were evaluated for their ability to inhibit CDK2 and CDK9 as given below. CDK-2/cyclin A (5-20 mU diluted in 50 mM Hepes pH 7.5, 1 mM DTT, 0.02% Brij35, 100 mM NaCl) was assayed against Histone HI in a final volume of 25.5 µl containing 50 mM Hepes pH7.5, 1 mM DTT, 0.02% Brij35, 100 mM NaCl, Histone HI (1 mg/ml), 10 mM magnesium acetate and 0.02 mM [33P-g-ATP](500-1000 cpm/pmole) and incubated for 30 min at room temperature. […]
inhibition at 0.5 µM values by entry

Field: example entries. Status: answers known.
c1ccc(CCNc2nccc(-c3c[nH]c4ncc(-c5nccc6ccccc56)cc34)n2)cc1    > 50%
COc1ccc2[nH]c(-c3cnc4[nH]cc(-c5ccnc(NC6CCCCCC6)n5)c4c3)cc2c1    > 70%
CSc1ccc(-c2cnc3[nH]cc(-c4ccnc(NCCc5ccccc5)n4)c3c2)cc1    > 50%
CSc1ccccc1-c1cnc2[nH]cc(-c3ccnc(N)n3)c2c1    > 70%
Cc1cccc(-c2cnc3[nH]cc(-c4ccnc(NCCc5ccccc5)n4)c3c2)c1    > 70%

What does the record list as inhibition at 0.5 µM for FC(F)(F)Oc1ccc(-c2cnc3[nH]cc(-c4ccnc(NC5CCCCCC5)n4)c3c2)cc1 ?
> 50%

What does the record list as inhibition at 0.5 µM for Cc1cccc(-c2cnc3[nH]cc(-c4ccnc(NC5CCCCCC5)n4)c3c2)c1 ?
> 50%

What does the record list as inhibition at 0.5 µM for c1ccc2c(-c3cnc4[nH]cc(-c5ccnc(NC6CCCCCC6)n5)c4c3)cccc2c1 ?
> 70%

What does the record list as inhibition at 0.5 µM for c1ccc(CCNc2nccc(-c3c[nH]c4ncc(-c5cc6ccccc6[nH]5)cc34)n2)cc1 ?
> 50%

###

experimentalTarget: CDK-9/Cyclin T1 (Homo sapiens)
assayName: CDK inhibition assay, CDK-9/Cyclin T1 against substrate peptide, 33P-ATP
Format: biochemical
reportedConditions: at 500 nM; read-out: inhibition against CDK9
Method: (50-1000 cpm/pmole) and incubated for 30 min at room temperature. Assays were stopped by addition of 5 µl of 0.5 M (3%) orthophosphoric acid and then harvested onto P81 Unifilter plates with a wash buffer of 50 mM orthophosphoric acid.
inhibition at 0.5 µM values by entry

Field: example entries. Status: answers known.
FC(F)(F)Oc1ccc(-c2cnc3[nH]cc(-c4ccnc(NC5CC5)n4)c3c2)cc1 [1A3]    > 70%
c1ccc(CCNc2nccc(-c3c[nH]c4ncc(-c5cccc6ccccc56)cc34)n2)cc1 [1B14]    > 50%
c1ccc2sc(-c3cnc4[nH]cc(-c5ccnc(NC6CCCC6)n5)c4c3)cc2c1 [1A38]    > 50%
FC(F)(F)Oc1ccc(-c2cnc3[nH]cc(-c4ccnc(NC5CCCCCC5)n4)c3c2)cc1 [1A43]    > 50%
Clc1ccc(-c2cnc3[nH]cc(-c4ccnc(NC5CCCCCC5)n4)c3c2)cc1 [1A52]    > 70%

What does the record list as inhibition at 0.5 µM for CCc1ccccc1-c1cnc2[nH]cc(-c3ccnc(NC4CCCC4)n3)c2c1 [1A30] ?
> 50%

What does the record list as inhibition at 0.5 µM for CSc1ccccc1-c1cnc2[nH]cc(-c3ccnc(N)n3)c2c1 [1C9] ?
> 70%

What does the record list as inhibition at 0.5 µM for c1ccc2c(-c3cnc4[nH]cc(-c5ccnc(NC6CCCCCC6)n5)c4c3)cccc2c1 [1A54] ?
> 70%

What does the record list as inhibition at 0.5 µM for O=Cc1ccc(-c2cnc3[nH]cc(-c4ccnc(NC5CCCCCC5)n4)c3c2)cc1 [1A53] ?
> 70%

What does the record list as inhibition at 0.5 µM for c1cncc(-c2cnc3[nH]cc(-c4ccnc(NC5CC5)n4)c3c2)c1 [1A15] ?
> 50%

What does the record list as inhibition at 0.5 µM for Nc1nccc(-c2c[nH]c3ncc(-c4cccc(C(F)(F)F)c4)cc23)n1 [1C4] ?
> 70%

What does the record list as inhibition at 0.5 µM for CCc1ccccc1-c1cnc2[nH]cc(-c3ccnc(NCCc4ccccc4)n3)c2c1 [1B10] ?
> 50%

What does the record list as inhibition at 0.5 µM for COc1ccc(-c2cnc3[nH]cc(-c4ccnc(NC5CC5)n4)c3c2)cc1 [1A11] ?
> 70%

What does the record list as inhibition at 0.5 µM for FC(F)(F)Oc1ccc(-c2cnc3[nH]cc(-c4ccnc(NCCc5ccccc5)n4)c3c2)cc1 [1B3] ?
> 50%

What does the record list as inhibition at 0.5 µM for c1cc(-c2c[nH]c3ncc(-c4ccoc4)cc23)nc(NC2CCCCCC2)n1 [1A56] ?
> 70%

What does the record list as inhibition at 0.5 µM for Cc1ccc(-c2cnc3[nH]cc(-c4ccnc(NC5CCCCCC5)n4)c3c2)cc1 [1A46] ?
> 50%

What does the record list as inhibition at 0.5 µM for CSc1ccccc1-c1cnc2[nH]cc(-c3ccnc(NC4CCCC4)n3)c2c1 [1A29] ?
> 70%

What does the record list as inhibition at 0.5 µM for Cc1ccc(-c2cnc3[nH]cc(-c4ccnc(NC5CCCC5)n4)c3c2)cc1 [1A26] ?
> 50%

What does the record list as inhibition at 0.5 µM for c1ccc2c(-c3cnc4[nH]cc(-c5ccnc(NC6CC6)n5)c4c3)cccc2c1 [1A14] ?
> 50%

What does the record list as inhibition at 0.5 µM for c1cc(-c2c[nH]c3ncc(-c4ccoc4)cc23)nc(NC2CC2)n1 [1A16] ?
> 70%

What does the record list as inhibition at 0.5 µM for FC(F)(F)c1cccc(-c2cnc3[nH]cc(-c4ccnc(NC5CC5)n4)c3c2)c1 [1A4] ?
> 70%

What does the record list as inhibition at 0.5 µM for Cc1cccc(-c2cnc3[nH]cc(-c4ccnc(NC5CC5)n4)c3c2)c1 [1A7] ?
> 70%

What does the record list as inhibition at 0.5 µM for c1cncc(-c2cnc3[nH]cc(-c4ccnc(NC5CCCC5)n4)c3c2)c1 [1A35] ?
> 50%

What does the record list as inhibition at 0.5 µM for COc1ccc(-c2cnc3[nH]cc(-c4ccnc(NC5CCCC5)n4)c3c2)cc1 [1A31] ?
> 50%

What does the record list as inhibition at 0.5 µM for c1cncc(-c2cnc3[nH]cc(-c4ccnc(NC5CCCCCC5)n4)c3c2)c1 [1A55] ?
> 70%
